Just for reference, patent US20110212968A1 is where these values come from.

- experimental.target: human orexin-2 receptor (Homo sapiens, UniProt O43614)
- Construct: expressed in transfected cells; host or cells: CHO (Chinese hamster ovary) cells, kept under G418 selection
- Sequence (O43614 whole entry): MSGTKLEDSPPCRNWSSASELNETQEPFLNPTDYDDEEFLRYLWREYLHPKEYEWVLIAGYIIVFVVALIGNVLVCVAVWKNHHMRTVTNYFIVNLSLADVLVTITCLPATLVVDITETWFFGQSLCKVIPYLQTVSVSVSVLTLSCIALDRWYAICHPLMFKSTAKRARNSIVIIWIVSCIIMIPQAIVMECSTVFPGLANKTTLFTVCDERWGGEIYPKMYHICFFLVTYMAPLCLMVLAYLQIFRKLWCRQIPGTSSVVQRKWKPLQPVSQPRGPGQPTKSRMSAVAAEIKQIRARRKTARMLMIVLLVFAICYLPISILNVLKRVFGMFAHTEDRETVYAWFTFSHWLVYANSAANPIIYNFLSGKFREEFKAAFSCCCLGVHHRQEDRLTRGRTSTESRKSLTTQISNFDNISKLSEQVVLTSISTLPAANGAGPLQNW
- assay.overview: Intracellular calcium measurement (FLIPR Tetra), orexin receptor antagonistic activity, OX2
- Assay type: cell-based
- setup.conditions: CHO cells expressing human orexin-2 receptor, 3 nM orexin-A, conditions B, normalized (*) using IC50 of on-plate reference compound
pIC50: −log10 of the molar value.
experimental.readout: pIC50

Some entries whose results are on file:
> print(dat)
                  compound.structure.string  value.observed
1  Cc1ccc(-c2nccnc2C(=O)N(CCc2c[nH]c3ccc(F)cc23)CC(N)=O)cc1C            6.15
2  COC(=O)CN(CCc1c[nH]c2ccccc12)C(=O)c1nc(C)sc1-c1cccc(Br)c1            8.00
3  COc1ccc(-c2cccnc2C(=O)N(CCc2c[nH]c3ccc(F)cc23)CC(F)F)cn1            6.79
4  COc1ncc(-c2nccnc2C(=O)N(CCc2c[nH]c3c(C)cccc23)CC2CC2)cn1            7.55
5  COc1nccc(-c2sc(C)nc2C(=O)N(CCc2c[nH]c3ccc(F)cc23)CC2CC2)c1Cl            7.08

(A) Cc1ccc2[nH]cc(CCN(CC3CC3)C(=O)c3nccnc3-c3ccccc3)c2c1
(B) O=C(c1cncnc1-c1ccc(Br)c(Cl)c1)N(CCc1c[nH]c2ccccc12)CC1CC1
Look at A and B . Which one has the lower recorded pIC50 number? Choose, then provide that item's label.
B

---

- experimental.target: human orexin-2 receptor (Homo sapiens)
- Construct: expressed in transfected cells; host or cells: CHO (Chinese hamster ovary) cells, kept under G418 selection
- assay.overview: Intracellular calcium measurement (FLIPR Tetra), orexin receptor antagonistic activity, OX2
- Assay type: cell-based
- setup.conditions: CHO cells expressing human orexin-2 receptor, 3 nM orexin-A, conditions B
experimental.readout: IC50 (µM)

// worked examples, IC50 included
> print(dat)
                  compound.structure.string  experimental.readout  value.observed
1  Cc1cccc(-c2sc(N)nc2C(=O)N(CCc2ccc3c(c2)OC(F)(F)O3)CC2CC2)c1                  IC50           0.745
2  COc1ccc(CCN(C(=O)c2nc(N)sc2-c2cccc(C)c2)C2CC2)cc1OC                  IC50           0.002
3  COCCN(CCc1ccc(OC)c(OC)c1)C(=O)c1nc(C)sc1-c1cccc(F)c1                  IC50           0.016
4  COc1ccc(CCN(CC2CC2)C(=O)c2ccncc2-c2cccc(C)c2)cc1OC                  IC50           0.005
5  COc1ccc(CCN(CCO)C(=O)c2nc(C)sc2-c2ccc(C)c(C)c2)cc1OC                  IC50           0.004

(1) Cc1cccc(-c2sc(N)nc2C(=O)N(CCc2ccc3ccccc3c2)CC2CC2)c1
(2) COc1ccc(CCN(CC2CC2)C(=O)c2nc(N)sc2-c2cccc(C)c2)cc1Br
(3) COc1ccc(CCN(CC2CC2)C(=O)c2ncccc2-c2ccc(C)cc2)cc1OC
(4) COc1ccc(CCN(CC(C)C)C(=O)c2nc(N)sc2-c2cccc(C)c2)cc1OC
(5) COc1ccc(CCN(CCO)C(=O)c2nc(C)sc2-c2cccc(F)c2)cc1OC
Hello, I need these entries ordered by IC50, highest reading first. Thanks! Labels, ranked as asked.
5, 1, 2, 4, 3
(5: 0.082 µM, 1: 0.045 µM, 2: 0.018 µM, 4: 0.008 µM, 3: 0.004 µM)

(a) Cc1cccc(-c2sc(N)nc2C(=O)N(CCc2nc3ccc(Cl)cc3[nH]2)CC2CC2)c1
(b) CCOc1ccc(CCN(CC2CC2)C(=O)c2nc(C)sc2-c2ccc(C)c(C)c2)cc1OC
(c) COc1cccc(-c2cnccc2C(=O)N(CCc2ccc(OC)c(OC)c2)CC2CC2)c1
(d) Cc1cccc(-c2sc(N)nc2C(=O)N(CCc2c[nH]c3ccc(F)cc23)CC2CC2)c1
Would you mind ranking these compounds by ascending IC50? Return value: ordered labels per request.
c, b, d, a

(A) COc1cc(CCN(CC2CC2)C(=O)c2nc(C)sc2-c2ccc(C)c(C)c2)ccc1O
(B) Cc1cccc(-c2sc(N)nc2C(=O)N(CCn2ccc3ccccc32)CC2CC2)c1
(C) COc1ccc(CCN(CC(F)(F)F)C(=O)c2nc(N)sc2-c2cccc(C)c2)cc1OC
Arrange these 3 compounds in increasing order of IC50. Could you list the labels in the order requested?
C, A, B
(C: 0.004 µM, A: 0.012 µM, B: 0.201 µM)
